Exercise: state measured relative viability for each of the molecules provided.
System: HOP-62
Assay: relative viability (nuclei count vs DMSO), 5 days (fraction); higher = more cells survive
Conditions: first compound 8 µM
Answer as a number with no unit attached.

Measured on HOP-62, CCCCCCCCCCCC1=C(O)C(=O)C=C(O)C1=O [Embelin] + O=C(CCCCCCC(=O)Nc1ccccc1)NO [Vorinostat] (partner 1 µM) has a documented relative viability of 0.527

Result for CCCCCCCCCCCC1=C(O)C(=O)C=C(O)C1=O [Embelin] + CS(=O)(=O)N1CCN(Cc2cc3nc(-c4cccc5[nH]ncc45)nc(N4CCOCC4)c3s2)CC1 [Pictilisib] (partner 1 µM) , tested on HOP-62, relative viability: 0.503

Here CCCCCCCCCCCC1=C(O)C(=O)C=C(O)C1=O [Embelin] + Cc1nc(Nc2ncc(C(=O)Nc3c(C)cccc3Cl)s2)cc(N2CCN(CCO)CC2)n1 [Dasatinib] (partner 0.075 µM) was tested on HOP-62, and its relative viability came to 0.654

For the molecule CCCCCCCCCCCC1=C(O)C(=O)C=C(O)C1=O [Embelin] + Cc1cc(Nc2cc(N3CCN(C)CC3)nc(Sc3ccc(NC(=O)C4CC4)cc3)n2)n[nH]1 [Tozasertib] (partner 0.1 µM) , the measured relative viability on HOP-62 was 0.387

* * *

Test system: NCI-H661
Test: relative viability (nuclei count vs DMSO), 5 days (fraction); higher = more cells survive
Conditions: first compound 4 µM
So basically, the class depends on measured relative viability, and the ranges are range A: < 0.5; range B: ≥ 0.5 and < 0.8; range C: ≥ 0.8

-- ask State the band of Clc1ccc(Nc2nnc(Cc3ccncc3)c3ccccc23)cc1 [Vatalanib] + COc1cc2c(Oc3ccc(NC(=O)C4(C(=O)Nc5ccc(F)cc5)CC4)cc3F)ccnc2cc1OCCCN1CCOCC1 [Foretinib] (partner 0.25 µM)
-- reply range C

-- ask For Clc1ccc(Nc2nnc(Cc3ccncc3)c3ccccc23)cc1 [Vatalanib] + N=C(N)NC(=N)NCCc1ccccc1 [Phenformin] (partner 250 µM) , which relative viability bin applies?
-- reply range A

-- ask Form field 'band' for Clc1ccc(Nc2nnc(Cc3ccncc3)c3ccccc23)cc1 [Vatalanib] + O=C(c1cc(Cc2n[nH]c(=O)c3ccccc23)ccc1F)N1CCN(C(=O)C2CC2)CC1 [Olaparib] (partner 8 µM)
-- reply range B

-- ask Which class holds COc1cc(N2CCC(C(N)=O)CC2)ccc1Nc1nc(N)c(Cl)c(Nc2ccccc2S(=O)(=O)C(C)C)n1 [HG-5-88-01] + Cc1nc(NC(=O)N2CCC[C@H]2C(N)=O)sc1-c1ccnc(C(C)(C)C(F)(F)F)c1 [Alpelisib] (partner 2 µM) ?
-- reply range B

-- ask Band of COc1cc(N2CCC(C(N)=O)CC2)ccc1Nc1nc(N)c(Cl)c(Nc2ccccc2S(=O)(=O)C(C)C)n1 [HG-5-88-01] + N=C(N)NC(=N)NCCc1ccccc1 [Phenformin] (partner 250 µM) ?
-- reply range A

-- ask // bin(item) where item = Clc1ccc(Nc2nnc(Cc3ccncc3)c3ccccc23)cc1 [Vatalanib] + COc1cccc2cc(-c3nc([C@H]4CC[C@H](C(=O)O)CC4)n4ncnc(N)c34)[nH]c12 [OSI-027] (partner 0.5 µM)
-- reply range B

-- ask Which category does the recorded relative viability put C[C@@H]1CN(CC(=O)Nc2ccc3c(c2)Cc2cccc(-c4cc(=O)cc(N5CCOCC5)o4)c2S3)C[C@H](C)O1 + COc1cc2c(Oc3ccc(NC(=O)C4(C(=O)Nc5ccc(F)cc5)CC4)cc3F)ccnc2cc1OCCCN1CCOCC1 [Foretinib] (partner 0.25 µM) in?
-- reply range C
